assay_comment: Cmax in cynomolgus monkey at 10 mg/kg, po
Format: ADME, organism-based, Macaca fascicularis
Parameters: dose 10 mg/kg, route oral
experimental_setup: in vivo
measured_attribute: Cmax (µM)

INSERT INTO results (smiles_record, measured_attribute, measurement) VALUES
  ('CCN1CCN(c2ccc(C(C)(C)NC(=O)c3cc4[nH]c5ccccc5c(=O)c4cc3F)cn2)CC1', 'Cmax', 26);

* * *

assay_comment: Lipophilicity, log P of the compound
Assay type: physicochemical
experimental_setup: octanol/water
measured_attribute: logP

INSERT INTO assay_data (smiles_record, measurement) VALUES
  ('CCN1CCN(c2ccc(C(C)(C)NC(=O)c3cc4[nH]c5ccccc5c(=O)c4cc3F)cn2)CC1', 2.5);
